target.of.assay: T1, SARS-CoV-2 스파이크 S1-mFc (SARS-CoV-2, UniProt P0DTC2 16-685)
T1 construct: range 16-685
measurement.protocol: competition ELISA: S1-mFc on coated ACE2-His
# reported pIC50; entries follow
pIC50 field: float, defined as -log10 of concentration (mol/L).

Some binders with recorded pIC50:
1) SA3830 (antibody, V domains shown) VH: QVQLVESGGGLIQPGRSLSLSCAASGFNFDEYSMHWVRQRPGKGLEWVSGIKYNSNTILYADSVKGRFTVSRDNSKNSLYLQMNSLRAEDTAVYYCARDAMRGGDFDHWGQGTLITVSS VL: DIQMTQSPSYLSASAGDRVTITCRASQSISDWLAWYQHKPGKAPKLLIYKASRLENGVPSRFRGSGSATDFTLTISSLQAEDVAVYYCQQYYSTTWTFGQGTKVDIK ... 8.73
2) SA3856 (antibody, V domains shown) VH: QMQLVESGGGLIQPGGSLRLSCAASGFTVTSAYMSWVRQAPGKGLEWVSIIYGGGSTYYADSVKGRFTISRDNSKNTLYLQMNSLRAEDTAVYYCTGPYPGRYDYWGRGTLVTVSS VL: DIQMTQSPSSLSASVGDRVIITCRASQDIRTSLAWFQQRLGEAPRSLIYDASSLQNGVPSKFRGSGSGTDFTLTISSLQPEDFATYYCQQYKTVPLTFGGGTKVEIK ... 8.67

Next:
Prompt line: Fill in pIC50 for record SA4043 (antibody, V domains shown) VH: QVQLQESGGGLVQPGGSLRLSCAASVITVSSNYMSWVRQAPGKGLEWVSVIYPGGSTYYADSVKGRFTISRDKSKNTLYLQMNSLRAEDTAVYYCARDLDIVGGMDVWGQGTTVTVSS VL: DIQMTQSPSTLSASVGDRVTITCRASQSISRWLAWYQQKPGQAPKLLIYAASTLQSGVPSRFSGSGSGTEFTLTISSLQPDDFATYYCQQYDSYPRTFGQGTKVDIK
Response line: 8.85
